Target: RAF proto-oncogene serine/threonine-protein kinase (Homo sapiens)
Sequence (P04049 whole entry): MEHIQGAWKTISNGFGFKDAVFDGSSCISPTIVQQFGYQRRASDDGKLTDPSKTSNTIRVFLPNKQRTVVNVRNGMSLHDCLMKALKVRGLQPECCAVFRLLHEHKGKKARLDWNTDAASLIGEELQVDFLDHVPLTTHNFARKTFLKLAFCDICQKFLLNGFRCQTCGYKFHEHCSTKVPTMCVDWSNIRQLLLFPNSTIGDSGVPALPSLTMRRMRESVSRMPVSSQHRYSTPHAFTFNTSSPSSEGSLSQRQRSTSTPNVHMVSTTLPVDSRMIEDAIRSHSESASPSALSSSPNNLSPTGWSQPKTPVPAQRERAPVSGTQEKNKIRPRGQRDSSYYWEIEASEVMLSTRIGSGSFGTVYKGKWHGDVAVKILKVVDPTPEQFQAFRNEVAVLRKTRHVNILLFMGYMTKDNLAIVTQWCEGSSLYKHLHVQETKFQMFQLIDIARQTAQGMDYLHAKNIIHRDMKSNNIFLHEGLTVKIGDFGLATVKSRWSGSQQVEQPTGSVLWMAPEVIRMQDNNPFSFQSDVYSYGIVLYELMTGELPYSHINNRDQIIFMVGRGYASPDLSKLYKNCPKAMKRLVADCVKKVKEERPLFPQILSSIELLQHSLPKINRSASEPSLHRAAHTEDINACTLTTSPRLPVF
Assay: Inhibition of human CRAF using MEK1 (K97R) as substrate in presence of [gamma-33P]ATP by scintillation counting method
pIC50: −log10 of the molar value.
Threshold rule: pIC50 greater than or equal to 6 is y; below that, n.

- given.smiles: "COc1cccc2nc(Nc3cccc(NC(=O)c4cc(C(F)(F)F)cc(C(F)(F)F)c4)c3)ccc12"
  group: "n"
- given.smiles: "CCN1CCN(c2cc(C(=O)Nc3cccc(Nc4ccc5c(OC)cccc5n4)c3)cc(C(F)(F)F)c2)CC1"
  group: "y"
- given.smiles: "COc1cccc2nc(Nc3cccc(NC(=O)c4cc(N5CCOCC5)cc(C(F)(F)F)c4)c3)ccc12"
  group: "y"
- given.smiles: "COc1cccc2nc(Nc3cccc(NC(=O)c4cc(-n5cnc(C)c5)cc(C(F)(F)F)c4)c3)ccc12"
  group: "y"
- given.smiles: "COc1cccc2nc(Nc3cccc(NC(=O)c4ccc(N5CCN(C)CC5)c(C(F)(F)F)c4)c3)ccc12"
  group: "y"

* * *

This listing pairs compounds with measured pIC50.
Target: Serine/threonine-protein kinase B-raf (Homo sapiens, UniProt P15056)
Sequence (P15056 whole entry): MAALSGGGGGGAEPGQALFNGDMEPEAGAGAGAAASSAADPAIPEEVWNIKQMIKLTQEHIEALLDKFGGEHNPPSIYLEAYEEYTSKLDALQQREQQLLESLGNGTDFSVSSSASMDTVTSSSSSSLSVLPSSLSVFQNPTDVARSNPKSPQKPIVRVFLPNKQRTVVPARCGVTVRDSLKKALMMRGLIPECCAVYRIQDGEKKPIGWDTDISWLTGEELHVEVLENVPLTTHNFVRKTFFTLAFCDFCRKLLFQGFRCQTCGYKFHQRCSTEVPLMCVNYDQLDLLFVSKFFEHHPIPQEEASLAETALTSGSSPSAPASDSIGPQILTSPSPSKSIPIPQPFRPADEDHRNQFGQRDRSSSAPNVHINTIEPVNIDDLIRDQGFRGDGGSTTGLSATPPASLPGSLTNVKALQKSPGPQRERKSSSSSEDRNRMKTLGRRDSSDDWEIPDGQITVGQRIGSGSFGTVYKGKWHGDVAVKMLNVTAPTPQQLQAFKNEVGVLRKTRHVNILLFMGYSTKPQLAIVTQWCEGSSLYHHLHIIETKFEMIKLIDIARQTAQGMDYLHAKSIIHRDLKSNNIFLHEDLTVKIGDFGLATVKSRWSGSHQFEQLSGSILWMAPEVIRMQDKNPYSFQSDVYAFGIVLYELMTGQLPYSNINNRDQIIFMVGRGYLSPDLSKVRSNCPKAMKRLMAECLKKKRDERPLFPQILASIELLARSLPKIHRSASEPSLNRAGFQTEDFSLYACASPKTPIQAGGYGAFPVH
Experiment: Inhibition of human BRAF using MEK1 (K97R) as substrate in presence of [gamma-33P]ATP by scintillation counting method
pIC50: −log10 of the molar value.
measured.quantity: pIC50

- given.smiles: "COc1cccc2nc(Nc3cccc(NC(=O)c4cc(N5CCOCC5)cc(C(F)(F)F)c4)c3)ccc12"
  measured.quantity: "pIC50"
  measurement.qualifier: "="
  recorded.result: 5.23
- given.smiles: "COc1cccc2nc(Nc3cccc(NC(=O)c4cc(C(F)(F)F)cc(C(F)(F)F)c4)c3)ccc12"
  measured.quantity: "pIC50"
  measurement.qualifier: "<"
  recorded.result: 4.00
- given.smiles: "COc1cccc2nc(Nc3cccc(NC(=O)c4cc(-n5cnc(C)c5)cc(C(F)(F)F)c4)c3)ccc12"
  measured.quantity: "pIC50"
  measurement.qualifier: "="
  recorded.result: 5.03
- given.smiles: "CCN1CCN(c2cc(C(=O)Nc3cccc(Nc4ccc5c(OC)cccc5n4)c3)cc(C(F)(F)F)c2)CC1"
  measured.quantity: "pIC50"
  measurement.qualifier: "="
  recorded.result: 5.65
- given.smiles: "COc1cccc2nc(Nc3cccc(NC(=O)c4ccc(N5CCOCC5)c(C(F)(F)F)c4)c3)ccc12"
  measured.quantity: "pIC50"
  measurement.qualifier: "="
  recorded.result: 4.39
- given.smiles: "COc1cccc2nc(Nc3cccc(NC(=O)c4ccc(N5CCN(C)CC5)c(C(F)(F)F)c4)c3)ccc12"
  measured.quantity: "pIC50"
  measurement.qualifier: "="
  recorded.result: 5.53

* * *

Test system: 786-0
Test: Growth inhibition of human 786-0 cells at 10 uM measured after 48 hrs by SRB assay relative to control
Format: functional
Settings: read-out: GI
measured.quantity: inhibition of growth at 10 µM

- given.smiles: "COc1cccc2nc(Nc3cccc(NC(=O)c4ccc(Cl)c(C(F)(F)F)c4)c3)ccc12"
  measured.quantity: "inhibition of growth at 10 µM"
  recorded.result: "< 20%"
- given.smiles: "COc1cccc2nc(Nc3cccc(NC(=O)c4cc(C(F)(F)F)cc(C(F)(F)F)c4)c3)ccc12"
  measured.quantity: "inhibition of growth at 10 µM"
  recorded.result: "< 20%"
- given.smiles: "COc1cccc2nc(Nc3ccc(NC(=O)c4ccc5c(c4)OCCO5)cc3)ccc12"
  measured.quantity: "inhibition of growth at 10 µM"
  recorded.result: "< 20%"
- given.smiles: "COc1cccc2nc(Nc3cccc(NC(=O)c4ccc5c(c4)OCCO5)c3)ccc12"
  measured.quantity: "inhibition of growth at 10 µM"
  recorded.result: "48.3%"
- given.smiles: "COc1cccc2nc(Nc3ccc(NC(=O)c4ccc(Cl)c(C(F)(F)F)c4)cc3)ccc12"
  measured.quantity: "inhibition of growth at 10 µM"
  recorded.result: "< 20%"
- given.smiles: "COc1cccc2nc(Nc3cccc(NC(=O)c4ccc5ncccc5c4)c3)ccc12"
  measured.quantity: "inhibition of growth at 10 µM"
  recorded.result: "51.4%"
- given.smiles: "COc1cccc2nc(Nc3cccc(NC(=O)c4cccc(Cl)n4)c3)ccc12"
  measured.quantity: "inhibition of growth at 10 µM"
  recorded.result: "< 20%"
